# measurement_notes: Weekly food intake of SHR rats
# Type: in vivo, rat
# measurement_context: 120 mg/kg/d intragastric, week 7
Marks after values point to notes of the source that are not given here.
Recorded Average dairy food intake values for a group of compounds are listed next.
observable: Average dairy food intake

compound: Cc1nc(C)c(C(=O)O[C@H]2C(=O)O[C@H]3O[C@]45C(=O)OC6C[C@@H](C(C)(C)C)C32[C@@]64[C@@H](O)[C@@H]2OC(=O)[C@@H](C)[C@@]25O)nc1C (stereo partly drawn)
result: 24.9^▴▴ g/d
//
compound: CCCCC(OC(C)=O)c1ccccc1C(=O)O[C@H]1C(=O)O[C@H]2O[C@]34C(=O)OC5C[C@@H](C(C)(C)C)C21[C@@]53[C@@H](O)[C@@H]1OC(=O)[C@@H](C)[C@@]14O (stereo partly drawn)
result: 25.4^▴▴ g/d
//
compound: Cc1nc(C)c(CO[C@H]2C(=O)O[C@H]3O[C@]45C(=O)OC6C[C@@H](C(C)(C)C)C32[C@@]64[C@@H](O)[C@@H]2OC(=O)[C@@H](C)[C@@]25O)nc1C (stereo partly drawn)
result: 25.8^▴▴ g/d
//
compound: C[C@@H]1C(=O)O[C@H]2[C@H](O)[C@@]34C5C[C@@H](C(C)(C)C)C36[C@@H](OC(=O)[C@@H]6OC(=O)[C@H](c3ccccc3Cl)N3CCc6sccc6C3)O[C@@]4(C(=O)O5)[C@@]12O (stereo partly drawn)
result: 25.1^▴▴ g/d
//
compound: CC(=O)Oc1ccccc1C(=O)O[C@H]1C(=O)O[C@H]2O[C@]34C(=O)OC5C[C@@H](C(C)(C)C)C21[C@@]53[C@@H](O)[C@@H]1OC(=O)[C@@H](C)[C@@]14O (stereo partly drawn)
result: 25.9^▴▴ g/d
//
compound: CC1C(=O)OC2C(O)C34C5CC(C(C)(C)C)C36C(OC(=O)C6O)OC4(C(=O)O5)C12O (stereo not drawn) [GB, ginkgolide B]
result: 26.8^▴▴ g/d

====

# System: spontaneously hypertensive rats (SHR)
# measurement_notes: Caudal artery systolic pressure of spontaneously hypertensive rats, 8 weeks of continuous medication
# Type: in vivo, rat
# measurement_context: 60 mg/kg/d intragastric continuous, 49 d, 30 min after administration, x ± s, n = 8

compound: CCCCC(OC(C)=O)c1ccccc1C(=O)O[C@H]1C(=O)O[C@H]2O[C@]34C(=O)OC5C[C@@H](C(C)(C)C)C21[C@@]53[C@@H](O)[C@@H]1OC(=O)[C@@H](C)[C@@]14O (stereo partly drawn) [BD]
unit_symbol: mmHg
Systolic pressure: 153.96
//
compound: C[C@@H]1C(=O)O[C@H]2[C@H](O)[C@@]34C5C[C@@H](C(C)(C)C)C36[C@@H](OC(=O)[C@@H]6OC(=O)[C@H](c3ccccc3Cl)N3CCc6sccc6C3)O[C@@]4(C(=O)O5)[C@@]12O (stereo partly drawn) [BL]
unit_symbol: mmHg
Systolic pressure: 149.68
//
compound: CC1C(=O)OC2C(O)C34C5CC(C(C)(C)C)C36C(OC(=O)C6O)OC4(C(=O)O5)C12O (stereo not drawn) [GB, ginkgolide B]
unit_symbol: mmHg
Systolic pressure: 150.56
//
compound: Cc1nc(C)c(C(=O)O[C@H]2C(=O)O[C@H]3O[C@]45C(=O)OC6C[C@@H](C(C)(C)C)C32[C@@]64[C@@H](O)[C@@H]2OC(=O)[C@@H](C)[C@@]25O)nc1C (stereo partly drawn) [BZ]
unit_symbol: mmHg
Systolic pressure: 155.06
//
compound: CC(=O)Oc1ccccc1C(=O)O[C@H]1C(=O)O[C@H]2O[C@]34C(=O)OC5C[C@@H](C(C)(C)C)C21[C@@]53[C@@H](O)[C@@H]1OC(=O)[C@@H](C)[C@@]14O (stereo partly drawn) [BA]
unit_symbol: mmHg
Systolic pressure: 151.70
//
compound: Cc1nc(C)c(CO[C@H]2C(=O)O[C@H]3O[C@]45C(=O)OC6C[C@@H](C(C)(C)C)C32[C@@]64[C@@H](O)[C@@H]2OC(=O)[C@@H](C)[C@@]25O)nc1C (stereo partly drawn) [BM]
unit_symbol: mmHg
Systolic pressure: 151.17
